# study target: TetR variant TetRc, tdTomato fusion (tetR-tdTomato)
# protocol details: FRET sensor 1 (tdTomato-TetRc + Cy5-DNA) titrated with aTc; aTc-induced TF-DNA unbinding
# Assay type: biochemical
# settings: sensor 1; legend of FIG. 4; read-out: c50 (analyte concentration that yields 50% signal, EC50)
outcome measure: EC50 (nM)
Write down the numeric answer in nM and omit the unit.

EC50 for Cc1c2c(c(O)c3c(O)cccc13)C(=O)[C@]1(O)C(=O)C(C(N)=O)=C(O)[C@@H](N(C)C)[C@@H]1C2 [aTc, anhydrotetracycline] is 205

---

# study target: Pimelobacter simplex PinR (AIY20223.2; SEQ ID NO: 1), his-tagged (AIY-his6)
# protocol details: QD-FRET steroid sensor (QD-PinR + DNA-Cy5), steroid-induced TF-DNA unbinding
# Assay type: biochemical
# settings: DNA 3; QD/TF/DNA 1/1/18; read-out: X0
outcome measure: pIC50
Interpret pIC50 as the negative base-10 log of the concentration measured in mol/L.

The reported Pimelobacter simplex PinR (AIY20223.2; SEQ ID NO: 1), his-tagged (AIY-his6) pIC50 of CC(=O)[C@H]1CC[C@H]2[C@@H]3CCC4=CC(=O)CC[C@]4(C)[C@H]3CC[C@]12C is 6.46

---

# study target: Pimelobacter simplex PinR (AIY20223.2; SEQ ID NO: 1), his-tagged (AIY-his6)
# protocol details: QD-FRET steroid sensor (QD-PinR + DNA-Cy5), steroid-induced TF-DNA unbinding
# Format: biochemical
# settings: DNA 3; QD/TF/DNA 1/4/2; read-out: X0
outcome measure: pIC50
Interpret pIC50 as the negative base-10 log of the concentration measured in mol/L.

pIC50 for CC(=O)[C@H]1CC[C@H]2[C@@H]3CCC4=CC(=O)CC[C@]4(C)[C@H]3CC[C@]12C is 6.70

---

# study target: Pimelobacter simplex PinR (AIY20223.2; SEQ ID NO: 1), his-tagged (AIY-his6)
# protocol details: QD-FRET steroid sensor (QD-PinR + DNA-Cy5), steroid-induced TF-DNA unbinding
# Assay type: biochemical
# settings: DNA 3; QD/TF/DNA 1/2/2; read-out: X0
outcome measure: IC50 (nM)
Write down the numeric answer in nM and omit the unit.

IC50 for CC(=O)[C@H]1CC[C@H]2[C@@H]3CCC4=CC(=O)CC[C@]4(C)[C@H]3CC[C@]12C is 270

---

# study target: TetR variant TetRc, tdTomato fusion (tetR-tdTomato)
# protocol details: FRET sensor 1 (tdTomato-TetRc + Cy5-DNA) titrated with aTc; aTc-induced TF-DNA unbinding
# Type: biochemical
# settings: aTc; sensor 1, tdTomato:TF:DNA 1:1:3; Table 6 fit; read-out: EC50
outcome measure: EC50 (nM)
Write down the numeric answer in nM and omit the unit.

The reported TetR variant TetRc, tdTomato fusion (tetR-tdTomato) EC50 of Cc1c2c(c(O)c3c(O)cccc13)C(=O)[C@]1(O)C(=O)C(C(N)=O)=C(O)[C@@H](N(C)C)[C@@H]1C2 [aTc, anhydrotetracycline] is 218

---

Exercise: for every item that follows, state its recorded [Pro]min.
# protocol details: QD-FRET sensor progesterone titration in HEPES 1×
# Type: biochemical
# settings: QD/TF/DNA=1/4/18, [QD]=25 nM
{Cy5} = Cy5 fluorescent dye attached at the strand end
Write down the numeric answer in µM and omit the unit.

[Pro]min for DNA1: Cy5-labelled PinR binding probe 5Cy5-GCCTAACTAGCCGTTCGGCTAGTTATTC-3Cy5 (SEQ ID NO: 24) (DNA, 5' {Cy5}, 3' {Cy5}, backbone and methylation of C not given here; hybridized with complementary strand to form double-stranded fluorescent oligo) is 0.073

[Pro]min for DNA3: Cy5-labelled PinR binding probe 5Cy5-GCCTAACTAGCCGTTCGGCAAGTAATTC-3Cy5 (SEQ ID NO: 28) (DNA, 5' {Cy5}, 3' {Cy5}, backbone and methylation of C not given here; hybridized with complementary strand to form double-stranded fluorescent oligo) is 0.040

[Pro]min for DNA2: Cy5-labelled PinR binding probe 5Cy5-GCCTAACTAGCCGATCGGCTAGTCATTC-3Cy5 (SEQ ID NO: 26) (DNA, 5' {Cy5}, 3' {Cy5}, backbone and methylation of C not given here; hybridized with complementary strand to form double-stranded fluorescent oligo) is 0.051

[Pro]min for DNA4: Cy5-labelled PinR binding probe 5Cy5-CCTTAACTAGCCGTTCTGTTAGTTATT C-3Cy5 (SEQ ID NO: 30) (DNA CCTTAACTAGCCGTTCTGTTAGTTATTC; DNA, 5' {Cy5}, 3' {Cy5}, backbone and methylation of C not given here; hybridized with complementary strand to form double-stranded fluorescent oligo) is 0.044

---

# study target: TetR variant TetRc (TetR-6His, on QD1)
# protocol details: FRET sensor 2 (QD1-TetRc + Cy5-DNA) titrated with aTc; aTc-induced TF-DNA unbinding
# Format: biochemical
# settings: aTc; sensor 2, QD:TF:DNA 1:4:18; Table 6 fit; read-out: EC50
outcome measure: EC50 (nM)
Write down the numeric answer in nM and omit the unit.

The reported TetR variant TetRc (TetR-6His, on QD1) EC50 of Cc1c2c(c(O)c3c(O)cccc13)C(=O)[C@]1(O)C(=O)C(C(N)=O)=C(O)[C@@H](N(C)C)[C@@H]1C2 [aTc, anhydrotetracycline] is 699

---

# study target: TetR variant TetRd (TetR-6His, on QD2)
# protocol details: FRET sensor 3 (QD2-TetRd + Cy5-DNA) titrated with aTc; aTc-induced TF-DNA unbinding
# Assay type: biochemical
# settings: sensor 3; legend of FIG. 4; read-out: c50 (analyte concentration that yields 50% signal, EC50)
outcome measure: pEC50
Interpret pEC50 as the negative base-10 log of the concentration measured in mol/L.

The reported TetR variant TetRd (TetR-6His, on QD2) pEC50 of Cc1c2c(c(O)c3c(O)cccc13)C(=O)[C@]1(O)C(=O)C(C(N)=O)=C(O)[C@@H](N(C)C)[C@@H]1C2 [aTc, anhydrotetracycline] is 6.93

---

# study target: Pimelobacter simplex PinR (AIY20223.2; SEQ ID NO: 1), his-tagged (AIY-his6)
# protocol details: QD-FRET steroid sensor (QD-PinR + DNA-Cy5), steroid-induced TF-DNA unbinding
# Assay type: biochemical
# settings: sensor 2 (DNA 2, QD/TF/DNA=1/4/18); read-out: IC50
# Protocol: Fluorescent spectra were analyzed using MATLAB (Mathworks) and were fitted with a sum of 2 Gaussians (D=QD: FWHM=27 nm, λmax=607 nm; A=DNA-Cy5: FWHM=40 nm, λmax=669 nm). The area of each Gaussian was extracted and FD and FA are obtained respectively for the fluorescence of QD (donor) and Cy5 (acceptor). […] The cross-reactivity of progesterone regarding the different steroids was calculated with the following equation: […]
outcome measure: IC50 (nM)
Write down the numeric answer in nM and omit the unit.

IC50 for CC(=O)[C@H]1CC[C@H]2[C@@H]3CCC4=CC(=O)CC[C@]4(C)[C@H]3CC[C@]12C is 133

---

# study target: Pimelobacter simplex PinR (AIY20223.2; SEQ ID NO: 1), his-tagged (AIY-his6)
# protocol details: QD-FRET steroid sensor (QD-PinR + DNA-Cy5), steroid-induced TF-DNA unbinding
# Format: biochemical
# settings: DNA2; QD/TF/DNA 1/4/18; read-out: X0
outcome measure: pIC50
Interpret pIC50 as the negative base-10 log of the concentration measured in mol/L.

pIC50 for CC(=O)[C@H]1CC[C@H]2[C@@H]3CCC4=CC(=O)CC[C@]4(C)[C@H]3CC[C@]12C is 6.43
